Reference source: patent US11578069B2

Each record here notes measured pEC50.
TARGET_OF_ASSAY: α4β7 integrin (Homo sapiens, UniProt P13612+P26010)
Construct: monitoring the capture of α4β7 integrin expressing cells; endogenous in cells; host or cells: RPMI8866
Sequence (P13612 34-1032): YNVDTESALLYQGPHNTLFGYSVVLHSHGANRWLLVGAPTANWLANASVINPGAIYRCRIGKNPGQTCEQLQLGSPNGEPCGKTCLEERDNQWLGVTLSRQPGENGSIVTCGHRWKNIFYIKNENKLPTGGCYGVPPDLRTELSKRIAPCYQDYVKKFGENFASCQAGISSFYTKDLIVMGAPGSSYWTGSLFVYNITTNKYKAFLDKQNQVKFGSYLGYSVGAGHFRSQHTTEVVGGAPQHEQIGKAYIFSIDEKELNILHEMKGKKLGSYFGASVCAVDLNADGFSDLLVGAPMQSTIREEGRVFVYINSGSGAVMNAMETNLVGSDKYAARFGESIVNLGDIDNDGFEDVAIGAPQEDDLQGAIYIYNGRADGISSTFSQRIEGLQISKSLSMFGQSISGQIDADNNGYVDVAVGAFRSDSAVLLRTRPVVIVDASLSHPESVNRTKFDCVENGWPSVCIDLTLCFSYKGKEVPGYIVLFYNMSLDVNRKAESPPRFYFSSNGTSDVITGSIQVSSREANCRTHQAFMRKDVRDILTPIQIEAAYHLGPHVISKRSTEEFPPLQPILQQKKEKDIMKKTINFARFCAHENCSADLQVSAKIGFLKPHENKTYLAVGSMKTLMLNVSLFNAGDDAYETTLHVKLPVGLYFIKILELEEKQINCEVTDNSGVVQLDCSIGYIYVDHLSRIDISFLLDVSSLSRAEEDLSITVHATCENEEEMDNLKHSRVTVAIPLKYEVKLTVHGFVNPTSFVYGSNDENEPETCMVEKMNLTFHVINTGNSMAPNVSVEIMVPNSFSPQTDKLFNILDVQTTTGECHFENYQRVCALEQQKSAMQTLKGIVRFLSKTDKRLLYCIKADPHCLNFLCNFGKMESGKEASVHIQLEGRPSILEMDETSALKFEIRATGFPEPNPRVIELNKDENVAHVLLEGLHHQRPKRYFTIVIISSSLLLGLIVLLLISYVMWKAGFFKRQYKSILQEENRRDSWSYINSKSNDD
Sequence (P26010 20-798): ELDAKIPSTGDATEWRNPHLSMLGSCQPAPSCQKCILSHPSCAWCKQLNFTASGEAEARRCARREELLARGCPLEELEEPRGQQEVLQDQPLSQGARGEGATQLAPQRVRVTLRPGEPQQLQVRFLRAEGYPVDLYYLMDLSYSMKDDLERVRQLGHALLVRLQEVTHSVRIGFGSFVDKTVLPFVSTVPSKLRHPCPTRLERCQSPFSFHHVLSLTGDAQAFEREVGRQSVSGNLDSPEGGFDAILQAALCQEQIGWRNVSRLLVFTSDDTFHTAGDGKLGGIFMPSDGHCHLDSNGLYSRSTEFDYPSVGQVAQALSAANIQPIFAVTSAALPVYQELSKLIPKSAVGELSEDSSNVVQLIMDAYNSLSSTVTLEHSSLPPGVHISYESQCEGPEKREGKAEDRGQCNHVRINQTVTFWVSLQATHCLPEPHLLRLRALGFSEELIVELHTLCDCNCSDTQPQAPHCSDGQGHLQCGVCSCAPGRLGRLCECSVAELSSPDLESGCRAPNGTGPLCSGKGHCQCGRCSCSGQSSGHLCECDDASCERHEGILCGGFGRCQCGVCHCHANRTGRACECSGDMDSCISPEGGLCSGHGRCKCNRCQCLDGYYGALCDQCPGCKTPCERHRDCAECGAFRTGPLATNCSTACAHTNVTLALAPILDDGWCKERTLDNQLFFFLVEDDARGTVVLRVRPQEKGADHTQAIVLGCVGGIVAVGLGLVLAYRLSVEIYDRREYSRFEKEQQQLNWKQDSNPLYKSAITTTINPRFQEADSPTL
TEST_SUMMARY: α4β7 Integrin Cell Capture Assay
Type: cell-based
TEST_PARAMETERS: capture of α4β7 integrin expressing RPM18866 cells on MadCAM-1 extracellular domain-coated plate; Table 2
Keep in mind that pEC50 stands for -log10 of concentration in molar terms.

Illustrative cases are given below, each with its answer.
In: Record CN(C)c1ccc2c(c1)c(=O)n(-c1ccc(C[C@H](NC(=O)c3c(F)cc(N4CCOC[C@@H]4C(F)(F)F)cc3F)C(=O)O)cc1)c(=O)n2C : what is its pEC50 with α4β7 integrin (Homo sapiens, UniProt P13612+P26010)?
Out: 8.92

In: Fill in the recorded pEC50 for this compound, with α4β7 integrin (Homo sapiens, UniProt P13612+P26010) as test system: Cc1cc(C[C@H](NC(=O)c2c(F)cc(N3CCOC[C@@H]3C(F)(F)F)cc2F)C(=O)O)ccc1-c1c(C)n(C)c(=O)n(C)c1=O
Out: 9.40

In: Request body: readout pEC50, system α4β7 integrin (Homo sapiens, UniProt P13612+P26010), query Cc1cc(N2CCOC[C@@H]2C(F)(F)F)cc(F)c1C(=O)N[C@@H](Cc1ccc(-n2c(=O)c3ccncc3n(C)c2=O)c(OC(F)(F)F)c1)C(=O)O (atropisomer, axis not shown) [Example 92] . Return the value.
Out: 9.70

In: Form entry - test system: α4β7 integrin (Homo sapiens, UniProt P13612+P26010); read-out: pEC50; compound: Cc1cc(C[C@H](NC(=O)c2c(F)cc(N3CCOC[C@@H]3C(F)(F)F)cc2F)C(=O)O)ccc1-c1c(C(F)(F)F)cc(C)n(C)c1=O
Out: 9.22

New cases:
In: Lab request: please report pEC50 under test system α4β7 integrin (Homo sapiens, UniProt P13612+P26010) for Cc1cc(N2CCOC[C@H]2CC(F)F)cc(F)c1C(=O)N[C@@H](Cc1ccc(-n2c(=O)c3ccncc3n(C)c2=O)nc1)C(=O)O
Out: 8.41
